# credit: patent US10654939

- experimental_system: T1, recombinant human CD40 (ECD)-his (human, UniProt P25942 21-193)
- T1 construct: Bought protein; also called hCD40(ECD)-his; TNFRSF5
- T1 sequence (P25942 21-193): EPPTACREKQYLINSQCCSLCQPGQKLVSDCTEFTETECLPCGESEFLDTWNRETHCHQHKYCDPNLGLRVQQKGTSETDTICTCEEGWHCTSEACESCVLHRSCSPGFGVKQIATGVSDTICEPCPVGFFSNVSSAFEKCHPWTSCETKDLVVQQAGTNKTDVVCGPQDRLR
- assay_method_text: SPR (Biacore 8K), hCD40(ECD)-his coupled to chip, antibody injected
property_name: kon

13A2-VH0VL0 (antibody, human IgG2, kappa, V domains shown, Humanized, human IgG2/kappa) VH: QVQLQESGPGLVKPSDTLSLTCAVSGYSITTNYYWNWIRQPPGKGLEWIGYINYDGSNNYNPSLKNRVTMSVDTSKNQFSLKLSSVTAVDTAVYYCARLDYWGQGTLVTVSS VL: DVVMTQSPLSLPVTLGQPASISCRSSQSLENSNGNTFLNWFQQRPGQSPRRLIYKVSNRFSGVPDRFSGSGSGTDFTLKISRVEAEDVGVYYCLQVTHVPFTFGQGTKLEIKR ... 396000 M⁻¹ s⁻¹
chimeric 13A2 antibody (antibody, human IgG2, kappa, V domains shown, Mouse variable regions with human IgG2/kappa constant regions) VH: EVKLEQSGPGLVKPSQSLSLTCSVTGYSITTNYYWNWIRQFPGNKLEWMGYINYDGSNNYNPSLKNRISITRDTSKNQFFLKLNSVTTEDTATYYCARLDYWGQGTSVTVSS VL: DIVMTQSPLSLPVSLGDQASISCRSSQSLENSNGNTFLNWFLQKPGQSPQLLIYKVSNRFSGVLDRFSGTGSGTDFTLTISRVEAEDLGVYFCLQVTHVPFTFGSGTKLEIKR ... 484000 M⁻¹ s⁻¹
13A2-VH2VL3 (antibody, human IgG2, kappa, V domains shown, Humanized, human IgG2/kappa) VH: QVQLQESGPGLVKPSDTLSLTCAVSGYSITTNYYWNWIRQPPGKGLEWMGYINYDGSNNYNPSLKNRITISVDTSKNQFSLKLSSVTAVDTAVYYCARLDYWGQGTLVTVSS VL: DVVLTQSPLSLPVTLGQPASISCRSSQSLENSNGNTFLNWFQQRPGQSPRLLIYKVSNRFSGVPDRFSGSGSGTDFTLKISRVEAEDVGVYFCLQVTHVPFTFGSGTKLEIKR ... 735000 M⁻¹ s⁻¹
13A2-VH2VL2 (antibody, human IgG2, kappa, V domains shown, Humanized, human IgG2/kappa) VH: QVQLQESGPGLVKPSDTLSLTCAVSGYSITTNYYWNWIRQPPGKGLEWMGYINYDGSNNYNPSLKNRITISVDTSKNQFSLKLSSVTAVDTAVYYCARLDYWGQGTLVTVSS VL: DVVLTQSPLSLPVTLGQPASISCRSSQSLENSNGNTFLNWFQQRPGQSPRLLIYKVSNRFSGVPDRFSGSGSGTDFTLKISRVEAEDVGVYYCLQVTHVPFTFGQGTKLEIKR ... 823000 M⁻¹ s⁻¹
